Let's look at some compounds and their measured AD38 Viability Normalized Result (CPAM/DMSO %) at 10 μM.
System: AD38 cells
Assay: Viability of AD38 cells (Promega CellTiter-Glo) at the end of compound treatment
Type: cell-based
Details: 10 μM compound, 6 days, luminescence normalized against DMSO control wells (controls being 100%)
Quick reminder: number only, in %, skip the unit.

O=C(O)c1ccc2c(c1)Sc1ccc(C(=O)NCCC3CCCCC3)cc1NC2=O; 105
O=C(NCc1ccccc1OC(F)(F)F)c1ccc2c(c1)NC(=O)c1ccccc1S2; 94
CCN1c2ccc(C(=O)NCc3cncs3)cc2NC(=O)c2ccccc21; 109
O=C(NCc1nncs1)c1ccc2c(c1)NC(=O)c1ccccc1S2; 117
O=C(NCC1CCOC1)c1ccc2c(c1)NC(=O)c1ccccc1S2 (centres unmarked); 104
COc1ccc(CCNC(=O)c2ccc3c(c2)NC(=O)c2ccccc2S3)cc1OC; 108
O=C(NCc1cccnc1)c1cc2c(cc1F)Sc1ccccc1C(=O)N2; 95

# ---- query compound ----
Answer with the recorded AD38 Viability Normalized Result (CPAM/DMSO %) at 10 μM of O=C(Nc1nc2ccc(F)cc2s1)c1ccc2c(c1)NC(=O)c1ccccc1S2(=O)=O only.
123

---

Tested on: AD38 cells
Test: Viability of AD38 cells (Promega CellTiter-Glo) at the end of compound treatment
Format: cell-based
Details: 10 μM compound, 6 days, luminescence normalized against DMSO control wells (controls being 100%)
Let's look at some compounds and their measured AD38 Viability Normalized Result (CPAM/DMSO %) at 10 μM.
Quick reminder: number only, in %, skip the unit.

A selection of reference data follows.
CC(C)(C)c1ccc([C@@H](CO)NC(=O)c2ccc3c(c2)NC(=O)c2cc(F)ccc2S3)cc1; 108
O=C(NCCc1cncs1)c1ccc2c(c1)NC(=O)c1cc(F)ccc1S2; 73
O=C(NCc1ccc(-c2cncnc2)cc1)c1ccc2c(c1)NC(=O)c1cc(F)ccc1S2; 101
Cc1cccc(CCNC(=O)c2ccc3c(c2)NC(=O)c2ccccc2S3)c1; 36
O=C(NCc1cccc(F)c1)c1ccc2c(c1)NC(=O)c1ccccc1S2; 117

Answer with the recorded AD38 Viability Normalized Result (CPAM/DMSO %) at 10 μM of CCc1cccc(CCNC(=O)c2ccc3c(c2)NC(=O)c2ccccc2S3)c1 only.
100

Answer with the recorded AD38 Viability Normalized Result (CPAM/DMSO %) at 10 μM of O=C(NCCc1ccc(-n2nccn2)cc1)c1ccc2c(c1)NC(=O)c1ccccc1S2(=O)=O only.
118

Answer with the recorded AD38 Viability Normalized Result (CPAM/DMSO %) at 10 μM of CCc1ncc(CNC(=O)c2ccc3c(c2)NC(=O)c2ccccc2S3)s1 only.
105

---

Let's look at some molecules and their measured activity at 10 µM.
Test system: HBV viral production in AD38 cells
Assay: Viral load production in AD38 cells by quantitative PCR of the HBV core sequence in supernatant
Assay type: cell-based
Details: Hepatitis B virus, 144 h; 10 μM compound, 6 days at 37° C., viral load in supernatant compared against DMSO control wells; read-out: AD38 Viral Load (CpAM/DMSO %) at 10 μM
Quick reminder: number only, in %, skip the unit.

O=C(NC(Cc1nnc[nH]1)c1ccccc1)c1ccc2c(c1)NC(=O)c1ccccc1S2 (centres unmarked); 64

Answer with the recorded activity at 10 µM of O=C(NCCc1ccc(O)cc1)c1ccc2c(c1)NC(=O)c1ccccc1S2 only.
1

Answer with the recorded activity at 10 µM of O=C(Nc1ncco1)c1ccc2c(c1)NC(=O)c1cc(F)ccc1S2 only.
50

Answer with the recorded activity at 10 µM of CN(C)C(=O)c1ccc2c(c1)Sc1ccc(C(=O)NCCc3ccccc3)cc1NC2=O only.
29

Answer with the recorded activity at 10 µM of O=C(NCCCCc1ccncc1)c1ccc2c(c1)NC(=O)c1ccccc1S2 only.
5

Answer with the recorded activity at 10 µM of O=C(Nc1cccc(-c2ccccc2C(=O)O)c1)c1ccc2c(c1)NC(=O)c1cc(F)ccc1S2 only.
77

Answer with the recorded activity at 10 µM of CN1c2ccc(C(=O)NCCc3cccnc3)cc2NC(=O)c2ccccc21 only.
7

Answer with the recorded activity at 10 µM of CC(Cc1cccc(O)c1)NC(=O)c1ccc2c(c1)NC(=O)c1ccccc1S2 (centres unmarked) only.
47

Answer with the recorded activity at 10 µM of O=C(NCCC1CCCO1)c1ccc2c(c1)NC(=O)c1ccccc1S2 (centres unmarked) only.
1

Answer with the recorded activity at 10 µM of O=C(NCCc1ccc(C(F)(F)F)cc1)c1ccc2c(c1)NC(=O)c1ccccc1S2 only.
1

Answer with the recorded activity at 10 µM of O=C(Nc1cccc(-c2ccccc2)c1)c1ccc2c(c1)NC(=O)c1ccc(F)cc1S2 only.
15

Answer with the recorded activity at 10 µM of O=C(NCCc1ccc(-n2cnnc2)cc1)c1ccc2c(c1)NC(=O)c1ccccc1S2 only.
77

Answer with the recorded activity at 10 µM of O=C(NCc1ccccc1)c1ccc2c(c1)NC(=O)c1ccccc1S2(=O)=O only.
3

Answer with the recorded activity at 10 µM of O=C(CCC1CCCCC1)Nc1ccc2c(c1)NC(=O)c1ccccc1S2 only.
24

Answer with the recorded activity at 10 µM of O=C(NCc1nncs1)c1ccc2c(c1)NC(=O)c1ccccc1S2 only.
35

Answer with the recorded activity at 10 µM of COc1cccc(CNC(=O)c2ccc3c(c2)NC(=O)c2ccccc2S3)c1 only.
2

Answer with the recorded activity at 10 µM of CC(C)(C)c1ccc(CNC(=O)c2ccc3c(c2)NC(=O)c2ccccc2S3)cc1 only.
5

---

System: AD38 cells
Assay: Viability of AD38 cells (Promega CellTiter-Glo) at the end of compound treatment
Type: cell-based
Settings: 10 μM compound, 6 days, luminescence normalized against DMSO control wells (controls being 100%)
MEASURED_PROPERTY: AD38 Viability Normalized Result (CPAM/DMSO %) at 10 μM
Quick reminder: number only, in %, skip the unit.

A selection of reference data follows.
CCc1ccc(CCNC(=O)c2ccc3c(c2)NC(=O)c2ccccc2S3)cc1 [Compound 1185]; 0
O=C(NCCc1ccccn1)c1ccc2c(c1)NC(=O)c1ccccc1N2Cc1ccccc1 [Compound 1474]; 101
O=C1Nc2c(cc(F)c(C(=O)NCc3cnco3)c2F)Sc2ccccc21 [Compound 1530]; 93
O=C(Nc1cccc(-c2cncnc2)c1)c1ccc2c(c1)NC(=O)c1cc(F)ccc1S2 [Compound 1440]; 91

Answer with the recorded AD38 Viability Normalized Result (CPAM/DMSO %) at 10 μM of O=C(NCCc1cncs1)c1ccc2c(c1)NC(=O)c1ccc(F)cc1S2 [Compound 1403] only.
82

Answer with the recorded AD38 Viability Normalized Result (CPAM/DMSO %) at 10 μM of COc1ccc(CCNC(=O)c2ccc3c(c2)NC(=O)c2ccccc2S3)cc1 [Compound 1114] only.
104

Answer with the recorded AD38 Viability Normalized Result (CPAM/DMSO %) at 10 μM of O=C(NCc1ccncc1)c1ccc2c(c1)NC(=O)c1ccccc1S2 [Compound 1572] only.
116

Answer with the recorded AD38 Viability Normalized Result (CPAM/DMSO %) at 10 μM of Cc1c(C(=O)NCCc2ccccn2)ccc2c1NC(=O)c1ccccc1S2 [Compound 1459] only.
92

---

Let's look at some compounds and their measured AD38 Viability Normalized Result (CPAM/DMSO %) at 10 μM.
System: AD38 cells
Assay: Viability of AD38 cells (Promega CellTiter-Glo) at the end of compound treatment
Type: cell-based
Settings: 10 μM compound, 6 days, luminescence normalized against DMSO control wells (controls being 100%)
Protocol: Example 56: Assay Measuring Activity of Compounds on Viral Production in and on Viability of AD38 Cells AD38 cells were then re-suspended with 10 mL of Treatment Medium and counted. […] At the end of compound treatment period cell viability was assessed using a Promega CellTiter-Glo protocol. […]
Quick reminder: number only, in %, skip the unit.

A selection of reference data follows.
O=C(NCc1cncnc1)c1ccc2c(c1)NC(=O)c1ccccc1O2 [Compound 1595]; 108
O=C(NCc1cncs1)c1ccc2c(c1)NC(=O)c1ccccc1[S+]2[O-] (stereo not drawn) [Compound 1388]; 71
O=C(NCC1CCOCC1)c1ccc2c(c1)NC(=O)c1ccccc1S2 [Compound 1607]; 93
Cc1c(C(=O)NCCc2cncnc2)ccc2c1NC(=O)c1ccccc1S2 [Compound 1529]; 111
O=C(NCCc1cncnc1)c1ccc2c(c1)NC(=O)c1cccc(F)c1S2 [Compound 1409]; 83

Answer with the recorded AD38 Viability Normalized Result (CPAM/DMSO %) at 10 μM of O=C(NCCO)c1ccc2c(c1)NC(=O)c1ccccc1S2 [Compound 1172] only.
107

Answer with the recorded AD38 Viability Normalized Result (CPAM/DMSO %) at 10 μM of O=C(NCCc1nnc[nH]1)c1ccc2c(c1)NC(=O)c1ccccc1S2 [Compound 1551] only.
91

Answer with the recorded AD38 Viability Normalized Result (CPAM/DMSO %) at 10 μM of O=C(NC[C@@H](O)c1ccccc1)c1ccc2c(c1)NC(=O)c1ccccc1S2 [Compound 1226] only.
80

Answer with the recorded AD38 Viability Normalized Result (CPAM/DMSO %) at 10 μM of O=C(NCc1cnco1)c1ccc2c(c1)NC(=O)c1cc(F)ccc1S2 [Compound 1311] only.
95
